Each recorded value in this set is attributed to paper PMC8780741.

- Assay protocol: Apparent permeability across MDCK monolayers
- Format: in vitro ADME, Canine
- Assay conditions: dog, 37 °C, stirring at 50 rpm
Reported endpoint: Papp A→B at 90 min, 100 µM (×10⁻⁶ cm/s)

compound="CCOC(=O)C1=C(C)NC2=C(C=Nc3ccccc3N2)C1c1ccccc1[N+](=O)[O-] (stereo not shown)" val=24.6

---

- Assay protocol: Refinement of intrinsic and salt solubility with pDISOL-X
- Assay conditions: aqueous buffer; pH 4.0, 37 °C; read-out: Solubility calculated by pDISOL-X
Reported endpoint: solubility (µg/mL)

compound="CCOC(=O)C1=C(C)NC2=C(C=Nc3ccccc3N2)C1c1ccccc1[N+](=O)[O-] (stereo not shown) [JM-20]" val=18.9

---

- Assay protocol: Refinement of intrinsic and salt solubility with pDISOL-X
- Assay conditions: aqueous buffer; pH 6.8, 37 °C; read-out: Solubility calculated by pDISOL-X
Reported endpoint: solubility

molecule="CCOC(=O)C1=C(C)NC2=C(C=Nc3ccccc3N2)C1c1ccccc1[N+](=O)[O-] (stereo not shown)" reported_endpoint=solubility val="12.5 µg/mL"

---

- Assay protocol: Apparent permeability across Caco-2 monolayers
- Type: in vitro ADME
- Assay conditions: human, Caco-2, Caco-2; 100 μM, 37 °C, stirring at 50 rpm
Reported endpoint: Papp A→B at 90 min, 100 µM (nm/s)

compound="CCOC(=O)C1=C(C)NC2=C(C=Nc3ccccc3N2)C1c1ccccc1[N+](=O)[O-] (stereo not shown) [JM-20]" reported_endpoint="Papp A→B at 90 min, 100 µM" val=383

---

- Assay protocol: Apparent permeability across Caco-2 monolayers
- Format: in vitro ADME
- Assay conditions: human; Caco-2; 100 μM, 37 °C, stirring at 50 rpm
Reported endpoint: Papp B→A at 90 min, 100 µM (×10⁻⁶ cm/s)

compound="CCOC(=O)C1=C(C)NC2=C(C=Nc3ccccc3N2)C1c1ccccc1[N+](=O)[O-] (stereo not shown)" val=8.5

---

- Assay protocol: Apparent permeability across Caco-2 monolayers
- Assay type: in vitro ADME
- Assay conditions: human, Caco-2; read-out: Permeability, Caco-2 value (abstract)
Reported endpoint: Papp at 90 min, 100 µM (×10⁻⁶ cm/s)

compound="CCOC(=O)C1=C(C)NC2=C(C=Nc3ccccc3N2)C1c1ccccc1[N+](=O)[O-] (stereo not shown) [JM-20]" val=38

---

- Assay protocol: Refinement of intrinsic and salt solubility with pDISOL-X
- Assay conditions: aqueous buffer; pH 7.4, 37 °C; read-out: Solubility calculated by pDISOL-X
Reported endpoint: solubility

compound="CCOC(=O)C1=C(C)NC2=C(C=Nc3ccccc3N2)C1c1ccccc1[N+](=O)[O-] (stereo not shown)" reported_endpoint=solubility val="11.9 µg/mL"

---

- Assay protocol: Thermodynamic solubility, shake-flask saturation method, and dose number
- Format: physicochemical
- Assay conditions: USP buffer solution, aqueous buffer, thermodynamic from solid; buffer pH 4.0, 37 °C, shake-flask; read-out: Solubility ± SD
- Protocol: For the solubility study, six buffer solutions (pH 1.2, 3.0, 4.0, 4.5, 6.8 and 7.4) were prepared following the protocols published in the USP XXXVIII, United States Pharmacopoeia, as described above. Solubility experiments for JM-20 were carried out according to the main regulatory guidelines for biowaivers. […] The samples were analyzed with a Thermo Fisher UV-Vis Spectrophotometer (λmax = 262 nm). […]
Reported endpoint: solubility (µg/mL)

compound="CCOC(=O)C1=C(C)NC2=C(C=Nc3ccccc3N2)C1c1ccccc1[N+](=O)[O-] (stereo not shown)" reported_endpoint=solubility val=25.4

---

- Assay protocol: Apparent permeability across MDCK-MDR1 monolayers
- Format: in vitro ADME, Canine
- Assay conditions: dog, 37 °C, stirring at 50 rpm
Reported endpoint: Papp A→B at 90 min, 100 µM

compound="CCOC(=O)C1=C(C)NC2=C(C=Nc3ccccc3N2)C1c1ccccc1[N+](=O)[O-] (stereo not shown)" reported_endpoint="Papp A→B at 90 min, 100 µM" val="21.7 ×10⁻⁶ cm/s"

---

- Assay protocol: Thermodynamic solubility, shake-flask saturation method, and dose number
- Type: physicochemical
- Assay conditions: USP buffer solution, aqueous buffer, thermodynamic from solid; buffer pH 3.5, 37 °C, shake-flask; read-out: Solubility ± SD
Reported endpoint: solubility (µg/mL)

molecule="CCOC(=O)C1=C(C)NC2=C(C=Nc3ccccc3N2)C1c1ccccc1[N+](=O)[O-] (stereo not shown)" val=12.7

---

- Assay protocol: Thermodynamic solubility, shake-flask saturation method, and dose number
- Format: physicochemical
- Assay conditions: USP buffer solution, aqueous buffer, thermodynamic from solid; buffer pH 4.5, 37 °C, shake-flask; read-out: Solubility ± SD
Reported endpoint: solubility (µg/mL)

molecule="CCOC(=O)C1=C(C)NC2=C(C=Nc3ccccc3N2)C1c1ccccc1[N+](=O)[O-] (stereo not shown) [JM-20]" reported_endpoint=solubility val=30.8

---

- Assay protocol: Refinement of intrinsic and salt solubility with pDISOL-X
- Assay conditions: 37 °C; read-out: So, intrinsic solubility calculated by pDISOL-X
Reported endpoint: solubility (µg/mL)

molecule="CCOC(=O)C1=C(C)NC2=C(C=Nc3ccccc3N2)C1c1ccccc1[N+](=O)[O-] (stereo not shown) [JM-20]" reported_endpoint=solubility val=12

---

- Assay protocol: Apparent permeability across MDCK-MDR1 monolayers
- Type: in vitro ADME, Canine
- Assay conditions: dog, 37 °C, stirring at 50 rpm
Reported endpoint: Papp B→A at 90 min, 100 µM (×10⁻⁶ cm/s)

compound="CCOC(=O)C1=C(C)NC2=C(C=Nc3ccccc3N2)C1c1ccccc1[N+](=O)[O-] (stereo not shown)" reported_endpoint="Papp B→A at 90 min, 100 µM" val=9.6

---

- Assay protocol: Refinement of intrinsic and salt solubility with pDISOL-X
- Assay conditions: pH 1.2, 37 °C; read-out: Solubility calculated by pDISOL-X
Reported endpoint: solubility (µg/mL)

compound="CCOC(=O)C1=C(C)NC2=C(C=Nc3ccccc3N2)C1c1ccccc1[N+](=O)[O-] (stereo not shown)" reported_endpoint=solubility val=3.3

---

- Assay protocol: Dissociation constant (pKa) by UV-spectrophotometric method
- Assay type: physicochemical
- Assay conditions: aqueous buffer solutions, pH 2 to 12, UV-spectrophotometric; 23 °C, ionic strength approximately 0.1 M; read-out: pKa1 (base)
Reported endpoint: pKa

compound="CCOC(=O)C1=C(C)NC2=C(C=Nc3ccccc3N2)C1c1ccccc1[N+](=O)[O-] (stereo not shown)" val=5.48

---

- Assay protocol: Thermodynamic solubility, shake-flask saturation method, and dose number
- Assay type: physicochemical
- Assay conditions: USP buffer solution, pH 1.2; acidic pH; read-out: Solubility at acidic pH (abstract)
Reported endpoint: solubility (µg/mL)

compound="CCOC(=O)C1=C(C)NC2=C(C=Nc3ccccc3N2)C1c1ccccc1[N+](=O)[O-] (stereo not shown)" val=9.18

---

- Assay protocol: Apparent permeability across Caco-2 monolayers
- Type: in vitro ADME
- Assay conditions: human; Caco-2 bidirectional transport
Reported endpoint: efflux ratio at 90 min, 100 µM

compound="CCOC(=O)C1=C(C)NC2=C(C=Nc3ccccc3N2)C1c1ccccc1[N+](=O)[O-] (stereo not shown) [JM-20]" reported_endpoint="efflux ratio at 90 min, 100 µM" val=0.13

---

- Assay protocol: Apparent permeability across MDCK monolayers
- Assay type: in vitro ADME, Canine
- Assay conditions: dog, 37 °C, stirring at 50 rpm
Reported endpoint: Papp B→A at 90 min, 100 µM

molecule="CCOC(=O)C1=C(C)NC2=C(C=Nc3ccccc3N2)C1c1ccccc1[N+](=O)[O-] (stereo not shown) [JM-20]" reported_endpoint="Papp B→A at 90 min, 100 µM" val="2.8 ×10⁻⁶ cm/s"

---

- Assay protocol: Thermodynamic solubility, shake-flask saturation method, and dose number
- Type: physicochemical
- Assay conditions: USP buffer solution, aqueous buffer, thermodynamic from solid; buffer pH 7.4, 37 °C, shake-flask; read-out: Solubility ± SD
Reported endpoint: solubility (µg/mL)

molecule="CCOC(=O)C1=C(C)NC2=C(C=Nc3ccccc3N2)C1c1ccccc1[N+](=O)[O-] (stereo not shown)" val=12.6
